- Target or test system: T1, TNFR1 (Homo sapiens, UniProt P19438)
- T1 chain: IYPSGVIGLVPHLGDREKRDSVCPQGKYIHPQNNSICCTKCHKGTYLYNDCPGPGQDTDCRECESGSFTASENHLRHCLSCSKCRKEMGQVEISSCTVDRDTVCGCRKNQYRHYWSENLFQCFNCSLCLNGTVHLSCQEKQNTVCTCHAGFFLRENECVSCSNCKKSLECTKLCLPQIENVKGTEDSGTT
- Run description: yeast display SC50
Property name: apparent Kd (screen)
Please state the number and follow it with the unit.

QUERY: Specify apparent Kd (screen) for E44A (designed binder) MTLQELLREEALRRAEAEAFRYALELLAEKFPEQKEYLLDLAEAIESQIRSLSGVDVEDVRKFLDKEWAWVKELLAEHPAELAEVEAARAARLAELRAEVEAKVAA and stop.
RESULT: 7.78 nM

QUERY: Specify apparent Kd (screen) for K72E (designed binder) MTLQELLREEALRRAEAEAFRYALELLAEKFPEQKEYLLDLAEEIESQIRSLSGVDVEDVRKFLDKEWAWVEELLAEHPAELAEVEAARAARLAELRAEVEAKVAA and stop.
RESULT: 0.869 nM

QUERY: Specify apparent Kd (screen) for A69E (designed binder) MTLQELLREEALRRAEAEAFRYALELLAEKFPEQKEYLLDLAEEIESQIRSLSGVDVEDVRKFLDKEWEWVKELLAEHPAELAEVEAARAARLAELRAEVEAKVAA and stop.
RESULT: 0.956 nM

QUERY: Specify apparent Kd (screen) for K30S (designed binder) MTLQELLREEALRRAEAEAFRYALELLAESFPEQKEYLLDLAEEIESQIRSLSGVDVEDVRKFLDKEWAWVKELLAEHPAELAEVEAARAARLAELRAEVEAKVAA and stop.
RESULT: 0.718 nM
